Each recorded value in this set is attributed to the supplement of paper PMC10567573.

Answer each item with its documented protein stability index.
B1: INTS3 (parent)
chain: EEITEESLEESVGKPLYLIFRNLC

Variants of: B1
Assay: protein stability index of a GFP-peptide fusion (GPS, HEK-293T) (PSI 1-6); higher = more stable;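 further: lentivirally expressed fusions sorted by FACS into six bins by GFP to DsRed ratio, PSI derived from sequencing read proportions per bin multiplied by bin number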
Conditions: c terminus: a fixed tail appended
Numbers only.

Completed entries (count: 5):
[
  {
    "changes": "L18C",
    "protein stability index": 2.7
  },
  {
    "changes": "T4F",
    "protein stability index": 2.01
  },
  {
    "changes": "E10G",
    "protein stability index": 2.82
  },
  {
    "changes": "L18S",
    "protein stability index": 3.37
  },
  {
    "changes": "K14S",
    "protein stability index": 2.94
  }
]

Hey, can you go through the list below and give me protein stability index for every item?
1. T4R
2. E9I
3. E9S

output:
1. 2.3
2. 2.14
3. 2.3

Give measured protein stability index for every item shown.
1. S11C
2. G13I
3. E1T
4. S11Y

output:
1: 2.34; 2: 1.81; 3: 2.6; 4: 2.58

For every record below, what is its protein stability index?
1. E6T
2. P15S
3. L8Y
4. V12N
5. E5V

output:
1. 2.02
2. 2.02
3. 2.97
4. 2.95
5. 1.72

Please supply protein stability index for each of the following items, keeping them in order.
1. V12D
2. S7A
3. G13D
4. E6I

output:
[3.63, 2.88, 2.88, 2.06]

Can you give me protein stability index for all of these, one by one?
1. V12P
2. L16M

output:
1. 2.94
2. 2.92

List protein stability index for every entry below, keeping the order given.
1. E1W
2. V12C
3. G13L
4. S11I

output:
1. 2.52
2. 2.55
3. 2.23
4. 2.52

For every item below, please supply its protein stability index.
1. L16I
2. E5M
3. E5A
4. E9V
5. S11V
6. E6K
7. T4K

output:
1. 2.56
2. 1.89
3. 2.4
4. 2.14
5. 2.32
6. 1.8
7. 2.46

Please report protein stability index for every entry that follows.
1. S11K
2. T4M
3. G13W

output:
1. 2.61
2. 2.23
3. 1.79
